assay: Clearance in rat at 1 mg/kg, iv; type: ADME, organism-based; settings: in vivo
Parameter Measured: clearance (mL/min/kg)

[a] C[C@](O)(CNC(=O)c1nc(C(F)(F)F)c(C(F)(F)F)cc1N)C(F)(F)F
[b] COc1nc(C(=O)NC[C@](C)(O)C(F)(F)F)c(N)cc1C(F)(F)F
Query: Looking at recorded values for clearance, does a or b come in lower? When you have decided, please share the label of that item.
Result: b
(b: 5 mL/min/kg, a: 15 mL/min/kg)

* * *

assay: Volume of distribution at steady state in rat at 3 mg/kg, iv measured for 24 hrs by LC-MS/MS analysis; type: ADME, organism-based; conditions: in vivo, read-out: Vdss
Parameter Measured: Vd (L/kg)

Compound	Parameter Measured	Unit Label	Reported Result
CC(O)CNC(=O)c1ncc(S(=O)(=O)N2CCC(OC(F)(F)F)CC2)cc1N (stereo not drawn)	Vd	L/kg	3.2

[1] C[C@H](O)CNC(=O)c1ncc(S(=O)(=O)c2ccc(OC(F)(F)F)cc2)cc1N
[2] Nc1cc(S(=O)(=O)c2ccccc2OC(F)(F)F)cnc1C(=O)NC[C@@H](O)C(F)(F)F
Query: Looking at recorded values for Vd, does 1 or 2 come in lower? When you have decided, please share the label of that item.
Result: 1

* * *

target: Cystic fibrosis transmembrane conductance regulator (Homo sapiens); experiment: Activation of CFTR F508del mutant (unknown origin)
pEC50: −log10 of the molar value.
Reported pEC50 values are given for each entry in this list.

Substance Smiles	Parameter Measured	Reported Result
COc1ncc(C2CCC2)cc1C1(C(=O)NS(=O)(=O)c2cccc3ccccc23)CC1	pEC50	> 5.00

Consider the record given below.
So the reported pEC50 for COc1ncc(C2CCC2)cc1C1(C(=O)NS(=O)(=O)c2cccc3nc(C)ccc23)CCC1 , on Cystic fibrosis transmembrane conductance regulator (Homo sapiens), turned out to be > 5.00

* * *

assay: Oral bioavailability in Beagle dog at 5 mg/kg by LC-MS/MS analysis; type: ADME, organism-based, Canis lupus familiaris; conditions: in vivo
Parameter Measured: bioavailability (%)
Please reply with the bare figure in % and do not write the unit itself.

For reference, reported bioavailability for CC1(C)Cc2c(sc(NC(=O)c3ccn[nH]3)c2C(N)=O)C(C)(C)O1 stands at 100

* * *

molecular target: Cystic fibrosis transmembrane conductance regulator (Homo sapiens, UniProt P13569, F508DEL); experiment: Potentiation of CFTR F508del mutant (unknown origin)
Sequence (P13569 as listed by the source): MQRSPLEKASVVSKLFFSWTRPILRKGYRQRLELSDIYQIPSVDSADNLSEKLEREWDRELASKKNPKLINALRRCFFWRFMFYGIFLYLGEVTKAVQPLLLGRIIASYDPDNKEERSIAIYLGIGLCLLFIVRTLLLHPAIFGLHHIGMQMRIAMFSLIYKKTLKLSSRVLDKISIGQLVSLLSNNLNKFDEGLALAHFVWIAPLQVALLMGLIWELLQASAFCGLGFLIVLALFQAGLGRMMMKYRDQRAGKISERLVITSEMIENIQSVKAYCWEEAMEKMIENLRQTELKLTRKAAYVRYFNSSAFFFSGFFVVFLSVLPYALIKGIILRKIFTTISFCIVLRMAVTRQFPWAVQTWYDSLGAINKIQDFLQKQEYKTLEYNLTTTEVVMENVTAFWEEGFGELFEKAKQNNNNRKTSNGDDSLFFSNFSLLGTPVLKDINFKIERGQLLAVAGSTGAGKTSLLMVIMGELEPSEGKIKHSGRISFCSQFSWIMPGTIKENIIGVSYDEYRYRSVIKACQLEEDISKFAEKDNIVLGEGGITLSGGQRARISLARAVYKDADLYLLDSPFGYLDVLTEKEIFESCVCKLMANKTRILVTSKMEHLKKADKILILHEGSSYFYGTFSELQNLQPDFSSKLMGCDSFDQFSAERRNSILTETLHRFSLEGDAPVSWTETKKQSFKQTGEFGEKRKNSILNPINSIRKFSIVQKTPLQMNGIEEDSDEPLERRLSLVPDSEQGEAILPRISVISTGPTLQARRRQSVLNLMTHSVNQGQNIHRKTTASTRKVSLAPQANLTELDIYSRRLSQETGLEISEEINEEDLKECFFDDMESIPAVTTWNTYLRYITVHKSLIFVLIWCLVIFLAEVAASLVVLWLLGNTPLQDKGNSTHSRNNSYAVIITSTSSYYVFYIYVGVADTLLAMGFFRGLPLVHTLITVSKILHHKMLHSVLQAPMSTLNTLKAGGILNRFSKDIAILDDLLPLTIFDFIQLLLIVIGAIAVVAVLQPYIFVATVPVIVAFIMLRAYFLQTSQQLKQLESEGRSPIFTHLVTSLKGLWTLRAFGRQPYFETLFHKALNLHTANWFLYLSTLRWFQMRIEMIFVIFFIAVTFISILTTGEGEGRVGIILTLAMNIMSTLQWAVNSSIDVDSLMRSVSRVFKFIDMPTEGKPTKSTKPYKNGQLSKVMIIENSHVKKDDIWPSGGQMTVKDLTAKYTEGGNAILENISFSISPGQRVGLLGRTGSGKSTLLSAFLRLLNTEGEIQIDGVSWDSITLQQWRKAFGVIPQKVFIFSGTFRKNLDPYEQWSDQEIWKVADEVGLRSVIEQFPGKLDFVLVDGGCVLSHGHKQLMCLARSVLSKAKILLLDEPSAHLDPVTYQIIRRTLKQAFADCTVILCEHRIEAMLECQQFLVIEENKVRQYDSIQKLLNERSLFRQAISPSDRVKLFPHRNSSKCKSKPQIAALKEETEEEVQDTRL
Parameter Measured: EC50 (nM)

Recorded EC50, per entry:
Substance Smiles	EC50 / nM
C[C@](O)(CNC(=O)c1nc(C(F)(F)F)c(C(F)(F)F)cc1N)C(F)(F)F	10
C[C@](O)(CNC(=O)c1nc(Br)c(C(F)(F)F)cc1N)C(F)(F)F	10

[P] COc1nc(C(=O)NC[C@](C)(O)C(F)(F)F)c(N)cc1C(F)(F)F
[Q] Nc1cc(C(F)(F)F)c(Br)nc1C(=O)NC[C@@H](O)C(F)(F)F
[R] CNC(=O)c1nc(-c2ccco2)c(C(F)(F)F)cc1N
[S] COC(=O)c1nc(I)c(C(F)(F)F)cc1N
[T] COC(=O)c1nc(-c2ccco2)c(C(F)(F)F)cc1N
Query: Let's sort these by EC50, smallest first. Go ahead? Return value: ordered labels per request.
Result: Q, P, T, S, R
(Q: 10 nM, P: 40 nM, T: 70 nM, S: 360 nM, R: 1860 nM)
